Consider the following compounds; for each one, report its Ki.
Assay: Inhibition of yeast alpha glucosidase
Set-up: species or system Saccharomyces cerevisiae
Provide the measurement as a number trailed by its unit.

CCCCCCC[C@@H]1C[C@@H](O)[C@@H](O)[C@@H](CO)N1
154 µM
CC[C@@H]1C[C@@H](O)[C@@H](O)[C@@H](CO)N1
123 µM

Let us examine a further case.
Exercise: Reported Ki, compound CCCCCCCCCCC[C@@H]1C[C@H](O)[C@@H](O)[C@@H](CO)N1 : ____
Key: 196 µM

* * *

Target: Alpha-galactosidase (Coffea arabica)
Sequence (Q5DUH8 whole entry): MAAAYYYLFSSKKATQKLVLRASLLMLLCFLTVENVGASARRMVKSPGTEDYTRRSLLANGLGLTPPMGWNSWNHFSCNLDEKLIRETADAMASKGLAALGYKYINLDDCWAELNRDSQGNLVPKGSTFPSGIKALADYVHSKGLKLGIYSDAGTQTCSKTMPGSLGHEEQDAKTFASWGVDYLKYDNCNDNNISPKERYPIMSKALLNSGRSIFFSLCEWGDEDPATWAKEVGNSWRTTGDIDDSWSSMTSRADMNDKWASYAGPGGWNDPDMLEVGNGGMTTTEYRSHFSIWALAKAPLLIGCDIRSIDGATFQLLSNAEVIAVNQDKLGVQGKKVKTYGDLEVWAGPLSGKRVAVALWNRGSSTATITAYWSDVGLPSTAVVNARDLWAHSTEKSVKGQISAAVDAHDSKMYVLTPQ
measurement kind: Ki (µM)
One number for each entry, in µM.

Exercise: I have this compound here, CC[C@@H]1C[C@@H](O)[C@@H](O)[C@@H](CO)N1 , and I need its recorded Ki.
Key: 721

From: ChEMBL document CHEMBL1147832
